Molecular target: T1, HLA-DR DRB4*0101 (human)
T1 chain 1: not shown
T1 chain 2: not shown
Test: radiolabeled-peptide inhibition, purified HLA-DR
Details: remark: other sources report otherwise
pIC50: −log10 of the molar value.

{"columns": ["binder", "pIC50"],
 "data": [
  ["SLTLQGLGISWLGLR [9019.0055]", 7.66]
]}
